All figures here come from ChEMBL document CHEMBL1150390.

- methodDescription: Inhibition of HCV 2a NS5B polymerase
- Set-up: species or system Hepatitis C virus subtype 2a
testReadout: IC50
Put down the number, then write its unit next to it.

stdin: Requested field: IC50. Item: O=C(Nc1ccc(Cl)c(Cl)c1)c1cc(I)cc(I)c1O
stdout: 16.2 µM

###

- methodDescription: Inhibition of HCV 1a NS5B polymerase
- Set-up: species or system Hepatitis C virus subtype 1a
testReadout: IC50 (µM)
Numeric answer only, unit µM assumed.

stdin: Form field: reported IC50 of O=C(Nc1ccc(Cl)c(Cl)c1)c1cc(I)cc(I)c1O
stdout: 5.7

###

- targetSystem: Genome polyprotein (Hepatitis C virus genotype 1b (isolate BK) (HCV), UniProt P26663)
- Sequence (P26663 2420-3010 limits assumed): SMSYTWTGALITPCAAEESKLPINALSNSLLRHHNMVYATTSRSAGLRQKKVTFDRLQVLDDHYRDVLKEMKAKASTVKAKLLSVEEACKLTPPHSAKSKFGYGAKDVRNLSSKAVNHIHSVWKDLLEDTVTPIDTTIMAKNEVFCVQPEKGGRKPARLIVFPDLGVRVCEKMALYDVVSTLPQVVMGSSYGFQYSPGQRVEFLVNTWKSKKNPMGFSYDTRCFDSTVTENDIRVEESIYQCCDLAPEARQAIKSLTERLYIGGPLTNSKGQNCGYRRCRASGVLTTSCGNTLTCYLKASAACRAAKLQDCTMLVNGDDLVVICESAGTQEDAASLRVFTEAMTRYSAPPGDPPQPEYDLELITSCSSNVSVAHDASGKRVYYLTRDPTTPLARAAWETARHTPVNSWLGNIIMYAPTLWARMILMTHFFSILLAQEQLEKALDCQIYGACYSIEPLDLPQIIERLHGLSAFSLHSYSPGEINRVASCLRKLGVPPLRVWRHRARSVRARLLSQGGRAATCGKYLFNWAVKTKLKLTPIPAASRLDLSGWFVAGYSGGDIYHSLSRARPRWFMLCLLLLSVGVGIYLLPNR
- methodDescription: Inhibition of HCV BK NS5B polymerase
testReadout: pIC50
# pIC50 is unitless: minus log10 of the molar concentration; print number only

stdin: # returns recorded pIC50 (system: Genome polyprotein (Hepatitis C virus genotype 1b (isolate BK) (HCV), UniProt P26663)) for O=C(Nc1ccc(Cl)c(Cl)c1)c1cc(I)cc(I)c1O
stdout: 5.07

###

- methodDescription: Inhibition of HCV 2b NS5B polymerase
- Parameters: species or system Hepatitis C virus subtype 2b
testReadout: pIC50
Scale: pIC50 equals -log10([C]), with [C] in mol/L.

stdin: pIC50 lookup needed for O=C(Nc1ccc(Cl)c(Cl)c1)c1cc(I)cc(I)c1O , thanks.
stdout: 4.76
